Catalogue of soluble fraction (log2) readings, one per entry.
assay: soluble fraction after stress (log2 fold change); higher = more stays soluble; pooled small domains, quantitative proteomics; conditions: stress: pH 4
Write no unit; give the number alone.

HMTSRWEIGYNVAKKYYDEHGNLDVERAVYDNFELKKWLNTQRYKNSAGTLAEKYKIKLDELGMNWER :: -0.00494
HMGLKWVYYTNIEPDGNKINNQKLYDILKQKFVYPVIISRDELDSMELKDLTYDSYIDVEGRYFKPYNLD :: -2.03
HMSASTGTVSYKSGATTVWNSPSWHQVKRYVTFGDTVQLLGKTVDQNGATWYKVGDNQWIPELYLNVAG :: -0.486
HMATPEINNLGRLRNAINQSNVNWHQIIKRLQNEYPNNWRQILIAIDRHDLLFRYDVENYIKYG :: -0.855
HMTSHPTHTILDGKVHVFMRDGSPFWWGGFHFKGKYLRTSTKQKNLDSAKTIAQQWYFQKQTEIASGE :: -0.0801

Asked: Return reported soluble fraction (log2); argument: "HMIKRNPLDEIEGVGPGRKKALLHAFGSAKGVSRASVVDLVKVEGVSQALAERIHDFFHPATR"
Given back: 0.198

Asked: # repeat for "HMIELEGVISSVLAGTMFKVKLRGNGHEVLAHISGKMRKKFIRLVIGDAVKIEMSPYDMDKARIVYRI"
Given back: 0.269

Asked: # repeat for "HMEEDPILVAQRFLNIFRQLHIFDQQRREEFNSMILALPPEIRGTFGVLPGGSVLQEYVDELEISKGMA"
Given back: -1.33

Asked: # repeat for "HMDRKFFYEDQYQDYLGEELKVSFFDTDNKKTVRGTLSEVTPHGIKINLEQETQEIPFSSIIQANLI"
Given back: -0.44

Asked: # repeat for "HMGAYIPSYAPVDINAATHTVVRGDTVYNISKRYHVSQEDFRAWNGMADNTLSIGQVVKVKPAGYTAPK"
Given back: 0.22

Asked: # repeat for "HMGTDGLKDIVLEILKEHPNQLAELIDGKQKVLGFLVGQVMKKTNGAANPKEVNEIIQGEIKK"
Given back: -0.433

* * *

assay: soluble fraction after stress (log2 fold change); higher = more stays soluble; pooled small domains, quantitative proteomics; details: stress: pH 4
RECORDED ENDPOINT: soluble fraction (log2)
Write no unit; give the number alone.

HMYPEETVNKILDVSMQLFLEKGYEHTSIQDIVNHLGGLSKGAIYHHFKSKEDILDGVMNKLYQNN :: -0.941
HMRRSKQERQQAIKTLISNEQIQRQEDLVRKLNEAGWEVTQATISRDITEMQLVKVPLPTGGFAYAVM :: -0.31
HMPDVAIMNVSVEPEKKVVRLQVKAISLEALLDFSTRLEAIPARVELQNHTPSKELSQKWAVNATLIVIY :: -0.0366
HMTEPIESVTTIAGRRIPYRLVRSLRARRMRMTIKESQVTVTLPRGVPLGEAERFLQQNAAWLFKQLDKP :: 0.162
HMTFGENLIRLRRQQGLSQEQLGMRIGVSRQTVSKWELNDTTPEMEKLIALADLFGLSLDELTGRV :: -0.392
HMEENIKKDIEVPNIEGLTIDEAKKRLKEVNLNISIEDMEEKEGTEIITQQLPKAGIKVKEGVAIIAY :: -0.211

Asked: Return reported soluble fraction (log2); argument: "HMQSKSEINELPKSIHMAFSPKNFELFIDNLKINEIDFSNWKGELNTIQERVDGQRQIWIQDPQGYWIEIN"
Given back: -0.335

Asked: # repeat for "HMGQISDESVLKEMVVQLIADNPKEVASYLGGKETLLQWFMGQVARATKGKADPQAVKQLLLDEFEKLK"
Given back: -0.504

Asked: # repeat for "HMPEGTYLEKLAIENNNLQLIGLSREASQLVQLLQDAPQWRKVNLTGVLQADGAASGRDRFTMTAELQ"
Given back: 0.187

Asked: # repeat for "HMGKELTVPDVVGQNYVSAQEKLIAGGFQVEVADSVYDSRYGRGVVVDQNPHKDTRVKPGRLIYVTVNA"
Given back: 0.0611

Asked: # repeat for "HMHYELTPDAEKQLSALGLTAELVERILEEANDRRPIPGTNRTVYSLHGYSVEFSNTNHKIVSVRKG"
Given back: 0.343

Asked: # repeat for "HMDTRKKLEQIFKLFDKTGTGMVNIDEFKSVLKLFMEEIDEKFGNYFIAYFDENGDGKIEFEEFADVVL"
Given back: -0.462

Asked: # repeat for "HMKPALFSADELNRLYRYGLSLTGERDRAYDLLQTALEKYLRQSQAPANAMRYVRKIMHNQFIDDYR"
Given back: -0.0906

Asked: # repeat for "HMLTIEEYLTQLKKLMKDRDAATVRDALSDAEEHLRNAMAGEDPSRLDGIIEEYGSPEEIAAAYKIMEEHT"
Given back: -0.715

Asked: # repeat for "HMETVQTGTVKVSNSLNVRSGAGTNYSVLGSLSNGAKVEIVGTSGSWYKIKYGSGYGYVSKDYVTVS"
Given back: -0.28

Asked: # repeat for "HMNAEQLAQVRRQKIGFIFQDFRLFPEYTVRDNILIPFYLDHRAPDEQMLHKLTGILGIAGKLHSRPAQL"
Given back: -0.0979

Asked: # repeat for "HMEISLEAKMAEVREQVRGLAGINFRTLLEMQASRSNIIVTFLAILELMKIGAIQIRQEEIFGEIIIDSRD"
Given back: -0.28

* * *

experiment: soluble fraction after stress (log2 fold change); higher = more stays soluble; pooled small domains, quantitative proteomics; settings: stress: pH 4
Returns one of 1 (yes) or 0 (no); 1 (yes) when soluble fraction (log2) is >= -0.4.

These recorded examples may help you get a feel for the data.
HMSEEIKVPNFVGSTFEKAQALAQETGLEIARGEDVYSPDQEEGKITSQNPTADSVVSPGKLITVYVSKG :: 1 (yes)
HMAKINFTSDAIDIGMVTRNDIEMLSFYQNVLGLTKDMEIPFPGLGVVNKLSFGSGFIKILVL :: 1 (yes)

Asked: Decide: soluble fraction (log2) of "HMNIDQAFISDLERMIMPDISKYELMDIISIMENSGFTIKVEGTGNEVRQVIKPGSKLKKGQKIKIKL" >= -0.4?
Given back: 0 (no)

Asked: # repeat for "HMEKINLIIEEDNNLRLDKVIAMQLQELSRTQIQDMINQGLVLVNQKKEKASYKTKLNDEIEITILD"
Given back: 1 (yes)

Asked: # repeat for "HMIGVQEFAMTYALTRRETEITQLIIQGKSNAMIAGELFISETTVKKHVSNIFEKTGVSRREELMVRVQAE"
Given back: 0 (no)

* * *

experiment: soluble fraction after stress (log2 fold change); higher = more stays soluble; pooled small domains, quantitative proteomics; conditions: stress: pH 4
RECORDED ENDPOINT: soluble fraction (log2)
Write no unit; give the number alone.

Here is how some sequences turned out for soluble fraction (log2).
HMSYQFKIKNNAAVEVTVSEKNNLLGSTYGDKATVAAGMEKNVTFYTDKPDVVVDTNGNFTITVHDKEIII :: -0.221
HMASPKEALWRSLAEEPDTWWDNRERKSQPGANPRSPDFKHKESGEALWIESRDTPTWVLETL :: -1.5
HMGRPTLEQLLDRAQAMGVPRERYAAYADRRWGRGWRVNPHGRGRAWDELDRYRNDPAGYLDKIEVELNQL :: -0.0109
HMQTQYIVDTKTTLLVRTGPGKSNSQFGRLKNGETINVYAIKNGWAEISYNGKTGYVSEQYIKLA :: 0.327

Asked: Return reported soluble fraction (log2); argument: "HMGYDLLFQQALGFHEQGRLNEAENIYRQILETAPNNPDILNLLGLIAQQKGLHAQAVDYFYQAIRL"
Given back: -1.9

Asked: # repeat for "HMVLVKFEWTPPDARILVDDHPVEARDKEMELPEGTHHVQALAPRGSGYESTVTDIEVRQGMDPVRIAL"
Given back: 0.115

Asked: # repeat for "HMETLKLRDSGKEVQSLQELLQRQGLSAPMNGIFDEATKSSVIAFQKANGLDADGIVGYKSWETLFTAG"
Given back: -0.349

Asked: # repeat for "HMTFDWAAYEISEKEIRVMSLVAEGFSNKEIAQELFLSEGTVRNYISNILEKLGLRDRTQLAVHYLKAV"
Given back: -1.52

* * *

assay: soluble fraction after stress (log2 fold change); higher = more stays soluble; pooled small domains, quantitative proteomics; conditions: stress: pH 4
Returns one of TRUE or FALSE; TRUE when soluble fraction (log2) is >= -0.5.

HMNEWVSVEERLPTDERPVLAFIGYADTMNGFITTSYYFRFDPDPHWLGEGLIPVGLKTLFWMPLPAP :: TRUE

Asked: Decide: soluble fraction (log2) of "HMVEGMQFDRGYQSPYFVTNAEKMVAELDNPYILLVEKKISSMKELLPVLEPVAQQGKSLLIISEEVEG" >= -0.5?
Given back: FALSE

Asked: # repeat for "HMTPFVINVDRHGAVIINEKTVDIDEAVVLARQERSQGKSILLAGDKKAPYEAIIRVLDALKQAG"
Given back: TRUE

Asked: # repeat for "HMRGLFTVYMVGEKASRVGELDEEMVYESRIGDVFALGATSWRIEEITHDRVLVSPAYGQPGRLPFWH"
Given back: FALSE
